test system: Phakopsora pachyrhizi (F129L); assay: Protective control of soybean rust on soybeans (PHAKPA P6); format: in vivo; conditions: protective P6, 4 ppm, soybean rust F129L
parameter.measured: % PHAKPA (F129L) Disease level P6 at 4 ppm (%)

>  <smiles.entry>
CNC(=O)/C(=N/OC)c1cccc(C)c1CO/N=C(\C)c1ccc(/C(C)=N\OC)cc1OC(F)(F)F

>  <display.unit>
%

>  <numeric.result>
67

$$$$
>  <smiles.entry>
CNC(=O)/C(=N/OC)c1cccc(C)c1CO/N=C(\C)c1c(F)ccc(F)c1C(F)(F)F

>  <display.unit>
%

>  <numeric.result>
100

$$$$
>  <smiles.entry>
CNC(=O)/C(=N/OC)c1cccc(C)c1CO/N=C(\C)c1ccc(F)cc1F

>  <display.unit>
%

>  <numeric.result>
10

$$$$
>  <smiles.entry>
CNC(=O)/C(=N/OC)c1cccc(C)c1CO/N=C(\C)c1ccc(-c2cc(C)on2)cc1

>  <display.unit>
%

>  <numeric.result>
80

$$$$
